B1: TIA1 (parent)
chain: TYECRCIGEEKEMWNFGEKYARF

# Variants of: B1
# Run description: protein stability index of a GFP-peptide fusion (GPS, HEK-293T) (PSI 1-6); higher = more stable;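 further: lentivirally expressed fusions sorted by FACS into six bins by GFP to DsRed ratio, PSI derived from sequencing read proportions per bin multiplied by bin number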
# Measurement setup: c terminus: native
The following variants are shown together with reported protein stability index values.
Answer using only a numeral; do not append any unit.

[in] Return the recorded protein stability index value; entry: A21E
[out] 3.16

[in] Return the recorded protein stability index value; entry: K19T
[out] 2.06

[in] Return the recorded protein stability index value; entry: Y2P
[out] 3.99

[in] Return the recorded protein stability index value; entry: W14T
[out] 2.22

[in] Return the recorded protein stability index value; entry: E9P
[out] 1.82

[in] Return the recorded protein stability index value; entry: K11H
[out] 1.78

[in] Return the recorded protein stability index value; entry: A21T
[out] 1.44

[in] Return the recorded protein stability index value; entry: G17S
[out] 1.72

[in] Return the recorded protein stability index value; entry: K11A
[out] 3.42
